- assay name: Atogepant-topiramate interaction study, cohort 2: topiramate steady-state PK
- Assay type: in vivo, human
- assay conditions: both sexes, human, plasma, topiramate 100 mg BID + atogepant 60 mg QD, day 17; read-out: Cmax,ss
metric name: Cmax
Provide a numeric answer, followed by its unit.

Which Cmax reading was recorded for the compound CC1(C)O[C@@H]2[C@@H](CO[C@@]3(COS(N)(=O)=O)OC(C)(C)O[C@@H]23)O1 [topiramate] ?
7300 ng/mL

* * *

- assay name: Hepatic impairment study: atogepant plasma PK
- Format: in vivo, human
- assay conditions: human, plasma, po, 60 mg, moderate hepatic impairment, single 60 mg oral dose; read-out: AUC0-∞
metric name: AUC(0-inf) (ng·h/mL)
Lab book: enter the figure in ng·h/mL, no units written.

Which AUC(0-inf) is reported for this molecule? C[C@@H]1[C@H](c2c(F)ccc(F)c2F)C[C@H](NC(=O)c2cnc3c(c2)C[C@@]2(C3)C(=O)Nc3ncccc32)C(=O)N1CC(F)(F)F [atogepant]
3310

* * *

- assay name: Hepatic impairment study: atogepant plasma PK
- Type: in vivo, human
- assay conditions: human, plasma, po, 60 mg, moderate hepatic impairment vs normal hepatic function; read-out: difference in median Tmax
metric name: Tmax (min)
Use min as the unit, but write only the number.

May I ask what Tmax has been recorded for C[C@@H]1[C@H](c2c(F)ccc(F)c2F)C[C@H](NC(=O)c2cnc3c(c2)C[C@@]2(C3)C(=O)Nc3ncccc32)C(=O)N1CC(F)(F)F [atogepant] ?
15

* * *

- assay name: Atogepant-rifampin drug interaction study: atogepant plasma PK
- Format: in vivo, human
- assay conditions: both sexes, human, plasma, oral, 60 mg, Treatment A: atogepant 60 mg alone; read-out: AUC0-24
metric name: AUC(0-t) (ng·h/mL)
Give just the number in ng·h/mL; leave the unit off.

Any idea what AUC(0-t) was measured for C[C@@H]1[C@H](c2c(F)ccc(F)c2F)C[C@H](NC(=O)c2cnc3c(c2)C[C@@]2(C3)C(=O)Nc3ncccc32)C(=O)N1CC(F)(F)F [atogepant] ?
2870

* * *

- assay name: Atogepant-topiramate interaction study, cohort 1: atogepant steady-state PK
- Format: in vivo, human
- assay conditions: both sexes, human, plasma, 60 mg, atogepant 60 mg QD alone, day 7; read-out: Cmax,ss
metric name: Cmax (µg/mL)
Write the answer as a number in µg/mL, unit excluded.

Any idea what its Cmax is? The compound is C[C@@H]1[C@H](c2c(F)ccc(F)c2F)C[C@H](NC(=O)c2cnc3c(c2)C[C@@]2(C3)C(=O)Nc3ncccc32)C(=O)N1CC(F)(F)F
0.626

* * *

- assay name: Hepatic impairment study: atogepant plasma PK
- Format: in vivo, human
- assay conditions: human, plasma, po, 60 mg, moderate hepatic impairment, single 60 mg oral dose; read-out: Tmax, median (range)
metric name: Tmax (h)
# unit: h | format: bare number

If you can, please state the reported Tmax value of C[C@@H]1[C@H](c2c(F)ccc(F)c2F)C[C@H](NC(=O)c2cnc3c(c2)C[C@@]2(C3)C(=O)Nc3ncccc32)C(=O)N1CC(F)(F)F .
1.5

* * *

- assay name: Atogepant-rifampin drug interaction study: atogepant plasma PK
- Type: in vivo, human
- assay conditions: both sexes, human, plasma, oral, 60 mg, Treatment A: atogepant 60 mg alone
metric name: half-life (min)
Provide only the numeric value, understood in min.

half-life lookup needed for C[C@@H]1[C@H](c2c(F)ccc(F)c2F)C[C@H](NC(=O)c2cnc3c(c2)C[C@@]2(C3)C(=O)Nc3ncccc32)C(=O)N1CC(F)(F)F , thanks.
684
